# Inhibition per entry
- Tested on: Escherichia coli
- reported_conditions: Concentration 32 ug.mL-1; ASSAY_TEST Inhibition of Bacterial Growth; detection method Absorption (OD600); MEDIA CAMHB; plate type 384well; NBS; CORNING #3640; time 18 hr
- Description: Antibacterial activity against Escherichia coli ATCC 25922 (CO-ADD:GN_001); MIC in CAMBH media using NBS plates, by OD(600)
Measured potencies and affinities stand elsewhere.

{"compound": "Cn1c(CNNC(=O)Cc2cccc3ccccc23)cc2ccccc21", "Inhibition [%]": -4.9}
{"compound": "CCOC(=O)C1=C(C)OC(N)=C(C#N)C1c1ccccc1OC (stereo unspecified)", "Inhibition [%]": -9.51}
{"compound": "C#CCN(C)c1nc(OC)c(C#N)c(-c2ccccc2)c1C#N", "Inhibition [%]": -5.76}
{"compound": "COc1ccc(C2c3c(ccc4ccccc34)OC(=NBr)C2(Br)C#N)cc1OC (stereo unspecified)", "Inhibition [%]": -20.35}
{"compound": "N#Cc1cc(C#N)c(Cl)nc1N", "Inhibition [%]": 7.53}
{"compound": "C#CCN(C)Cc1cc2cc(OCCCCC3CCN(Cc4ccccc4)CC3)ccc2n1C.Cl", "Inhibition [%]": -14.71}

###

// reported Inhibition per item
- Test system: Staphylococcus aureus
- reported_conditions: Concentration 32 ug.mL-1; ASSAY_TEST Inhibition of Bacterial Growth; detection method Absorption (OD600); MEDIA CAMHB; plate type 384well; NBS; CORNING #3640; time 18 hr
- Description: Antibacterial activity against Staphylococcus aureus MRSA ATCC 43300 (CO-ADD:GP_020); MIC in CAMBH media, using NBS plates, by OD(600)
Potency and affinity values are given separately.

{"compound": "O=C1SC(SCc2ccccc2)=NC1=Cc1ccccc1", "Inhibition, %": 6.82}
{"compound": "COc1cc(C2C(C#N)=C(N)Oc3ccc4ccccc4c32)ccc1O (stereo not given)", "Inhibition, %": 37.28}
{"compound": "Cc1nn(-c2ccccc2)c2ncn3nc(-c4ccccc4)nc3c12", "Inhibition, %": 11.88}
{"compound": "COc1ccc(C2c3c(nc4c(c3N)CCCC4)Oc3ccc4ccccc4c32)cc1OC (stereo not given)", "Inhibition, %": 3.78}
{"compound": "N#Cc1cc(C#N)c(N2CCCC2)nc1N", "Inhibition, %": 51.19}
{"compound": "O=C(NCc1ccccc1)c1cc2ccccc2[nH]1", "Inhibition, %": 5.56}
{"compound": "C#CCN(C)Cc1cc2cc(O)ccc2n1C.Cl", "Inhibition, %": 21.22}
{"compound": "CCOC(=O)C1=C(C)NC(N)=C(C#N)C1c1ccc([N+](=O)[O-])cc1 (stereo not given)", "Inhibition, %": 22.51}
{"compound": "COc1ccc2c(c1)cc(CN)n2C", "Inhibition, %": 13.26}
{"compound": "COc1nc2nc3c(c(N)c2cc1C#N)CCCC3.Cl", "Inhibition, %": 7.17}
{"compound": "N#Cc1c(N)nc(N2CCOCC2)c(C#N)c1-c1ccccc1", "Inhibition, %": 7.58}
{"compound": "Cn1cc(C(=O)NN)c2ccccc21", "Inhibition, %": 4.01}
{"compound": "CC(=O)Oc1ccc(C=C2N=C(c3ccccc3)OC2=O)c(OC(C)=O)c1", "Inhibition, %": 7.39}
{"compound": "C=C1CN(C)c2c(C#N)cc(C#N)c(=N)n21", "Inhibition, %": 13.03}
{"compound": "Cn1c(CNNC(=O)Cc2cccc3ccccc23)cc2ccccc21", "Inhibition, %": -5.85}
{"compound": "N#C/C(=C\\c1ccccc1Cl)C(=O)c1ccccc1", "Inhibition, %": 33.12}
{"compound": "N#CC1(Br)C(=NBr)Oc2ccc3ccccc3c2C1c1cccc([N+](=O)[O-])c1 (stereo not given)", "Inhibition, %": 29.27}
{"compound": "COC(=O)C(=Cc1ccc(OC)cc1)NC(=O)c1ccccc1", "Inhibition, %": 17.26}
{"compound": "CC1Cc2ccccc2N1/N=C/c1ccccc1 (stereo not given)", "Inhibition, %": -5.3}
{"compound": "COc1[nH]c(=O)ccc1C#N", "Inhibition, %": 31.13}
{"compound": "Cc1ccc(/C=C(\\C#N)C(=O)c2ccccc2)cc1", "Inhibition, %": 25.42}
{"compound": "O=C(Cc1c[nH]c2ccccc12)NNCCc1ccccc1", "Inhibition, %": 4.22}
{"compound": "O=C(N/N=C/c1ccc([N+](=O)[O-])cc1)c1cc2ccccc2[nH]1", "Inhibition, %": 11.24}
{"compound": "CCOc1nc2nc(CCc3ccccc3)ccc2c(-c2ccccc2)c1C#N", "Inhibition, %": 14.64}
{"compound": "COc1cccc(C2c3c(ccc4ccccc34)OC(=NBr)C2(Br)C#N)c1 (stereo not given)", "Inhibition, %": 39.2}

###

- Tested on: Escherichia coli
- reported_conditions: Concentration 32 ug.mL-1; ASSAY_TEST Inhibition of Bacterial Growth; detection method Absorption (OD600); MEDIA CAMHB; plate type 384well; NBS; CORNING #3640; time 18 hr
Potency and affinity values are given separately.
Examples of molecules with documented Inhibition follow.

{"molecule": "CCOC(=O)/C(C#N)=C\\c1ccc(C)cc1", "test_target": "Escherichia coli", "Inhibition [%]": 15.07}
{"molecule": "COc1ccc(C2C(C#N)=C(N)Oc3ccc4ccccc4c32)cc1 (stereo unspecified)", "test_target": "Escherichia coli", "Inhibition [%]": -4.54}
{"molecule": "COc1ccc2c(c1)cc(CN(C)C)n2C", "test_target": "Escherichia coli", "Inhibition [%]": -1.4}
{"molecule": "N#Cc1c(N)nc(N)c(C#N)c1-c1ccccc1", "test_target": "Escherichia coli", "Inhibition [%]": -10.66}
{"molecule": "C#CCN1CCc2nc3nc(NC4CCN(Cc5ccccc5)CC4)c(C#N)cc3c(N)c2C1", "test_target": "Escherichia coli", "Inhibition [%]": -8.32}
{"molecule": "C#CCN1CCc2nc3nc(N(C)C)c(C#N)cc3c(N)c2C1", "test_target": "Escherichia coli", "Inhibition [%]": -3.45}
{"molecule": "COc1cc(C2CC2(N)C(=O)O)ccc1O (stereo unspecified)", "test_target": "Escherichia coli", "Inhibition [%]": -1.72}
{"molecule": "N#Cc1c(Cl)nc(NC2CCN(Cc3ccccc3)CC2)c(C#N)c1-c1ccccc1", "test_target": "Escherichia coli", "Inhibition [%]": -18.84}
{"molecule": "COc1ccc2cc(C3C4=C(CC(C)(C)CC4=O)Oc4nc5c(c(N)c43)CCCCC5)c(Cl)nc2c1 (stereo unspecified)", "test_target": "Escherichia coli", "Inhibition [%]": 12.92}
{"molecule": "CCOC(=O)C1=C(C)Oc2nc3c(c(N)c2C1c1nccn1C)CCC3 (stereo unspecified)", "test_target": "Escherichia coli", "Inhibition [%]": -22.18}
{"molecule": "CCOc1nc2nc3c(c(N)c2cc1C#N)CCCC3", "test_target": "Escherichia coli", "Inhibition [%]": -2.83}

###

# Inhibition values compiled below
- Tested on: Staphylococcus aureus
- reported_conditions: Concentration 32 ug.mL-1; ASSAY_TEST Inhibition of Bacterial Growth; detection method Absorption (OD600); MEDIA CAMHB; plate type 384well; NBS; CORNING #3640; time 18 hr
Measured potencies and affinities stand elsewhere.

{"compound": "Cn1ccnc1C1c2ccc3ccccc3c2Oc2nc3c(c(N)c21)CCCCC3 (stereo not given)", "test_target": "Staphylococcus aureus", "Inhibition / %": 17.85}
{"compound": "N#Cc1c(N)nc(O)c(C#N)c1-c1ccccc1", "test_target": "Staphylococcus aureus", "Inhibition / %": 4.47}
{"compound": "COc1ccc2c(c1)cc(C(=O)Nc1ccccc1)n2C", "test_target": "Staphylococcus aureus", "Inhibition / %": 20.93}
{"compound": "Cn1c(CNNC(=O)c2ccco2)cc2ccccc21", "test_target": "Staphylococcus aureus", "Inhibition / %": 1.86}
{"compound": "CCOC(=O)c1cc(C#N)c(N)nc1C", "test_target": "Staphylococcus aureus", "Inhibition / %": 8.2}
{"compound": "C#CCN(C)Cc1cc2cc(OCCCCC3CCN(Cc4ccccc4)CC3)ccc2n1C", "test_target": "Staphylococcus aureus", "Inhibition / %": 38.42}
{"compound": "COc1ccc(-c2cc(-c3ccccc3)c(C#N)c(N)n2)cc1", "test_target": "Staphylococcus aureus", "Inhibition / %": 10.32}
{"compound": "N#Cc1c(N)nc(N)c(C#N)c1-c1ccccc1", "test_target": "Staphylococcus aureus", "Inhibition / %": 24.97}
{"compound": "Br.C#CCNCc1ccccc1", "test_target": "Staphylococcus aureus", "Inhibition / %": 25.93}
{"compound": "COC(=O)C(C#N)=Cc1ccccc1", "test_target": "Staphylococcus aureus", "Inhibition / %": 23.27}
{"compound": "COC(=O)C(=Cc1ccccc1)NC(=O)c1ccccc1", "test_target": "Staphylococcus aureus", "Inhibition / %": 11.82}
{"compound": "CCOC(=O)c1cn(C)c2ccccc12", "test_target": "Staphylococcus aureus", "Inhibition / %": 5.67}
{"compound": "N#Cc1c(N)nc(NCCC2CCN(Cc3ccccc3)CC2)c(C#N)c1-c1ccccc1", "test_target": "Staphylococcus aureus", "Inhibition / %": 34.16}
{"compound": "CSC1=NC(=Cc2cn(C(c3ccccc3)(c3ccccc3)c3ccccc3)c3ccccc23)C(=O)N1C", "test_target": "Staphylococcus aureus", "Inhibition / %": -1.08}
{"compound": "CCOC(=O)C1=C(C)OC(N)=C(C#N)C1c1ccc(OC)c(OC)c1 (stereo not given)", "test_target": "Staphylococcus aureus", "Inhibition / %": 21.72}
{"compound": "CCOC(=O)c1c(C)nc(NC2CCN(Cc3ccccc3)CC2)c(C#N)c1-c1ccccc1", "test_target": "Staphylococcus aureus", "Inhibition / %": 43.62}
{"compound": "C#CCn1c(N)c(C#N)c2cc(O)ccc21", "test_target": "Staphylococcus aureus", "Inhibition / %": 28.27}
{"compound": "COc1ccccc1[C@H]1c2c(ccc3ccccc23)O/C(=N\\Br)[C@@]1(Br)C#N", "test_target": "Staphylococcus aureus", "Inhibition / %": 33.19}
{"compound": "COc1ccc(C=C2N=C(c3ccccc3)SC2=O)cc1", "test_target": "Staphylococcus aureus", "Inhibition / %": 12.36}
{"compound": "CCC(CC)NNC(=O)c1cc2ccccc2n1C", "test_target": "Staphylococcus aureus", "Inhibition / %": 11.92}
{"compound": "Cl.NC1(C(=O)O)CC1c1ccccc1 (stereo not given)", "test_target": "Staphylococcus aureus", "Inhibition / %": 12.81}
{"compound": "CN(C)c1nc(N)c(C#N)c(-c2ccccc2)c1C#N", "test_target": "Staphylococcus aureus", "Inhibition / %": 7.52}
{"compound": "O=C(N[C@H]1CC[C@H](O)CC1)c1ccccc1", "test_target": "Staphylococcus aureus", "Inhibition / %": 23.34}
{"compound": "C#CCNC.O=C(O)C(=O)O", "test_target": "Staphylococcus aureus", "Inhibition / %": 24.36}
{"compound": "CNCc1cc2cc(OC)ccc2n1C.Cl", "test_target": "Staphylococcus aureus", "Inhibition / %": 10.42}
{"compound": "CSC1=NC(=Cc2cn(C)c3ccccc23)C(=O)N1C", "test_target": "Staphylococcus aureus", "Inhibition / %": 3.9}
{"compound": "Cl.ClCCCCCN1CCCCC1", "test_target": "Staphylococcus aureus", "Inhibition / %": 7.58}
{"compound": "N#Cc1cccnc1Cl", "test_target": "Staphylococcus aureus", "Inhibition / %": 22.89}
{"compound": "N#Cc1cccnc1N", "test_target": "Staphylococcus aureus", "Inhibition / %": 27.07}
{"compound": "COc1ccc2c(c1)cc(/C=C/[N+](=O)[O-])n2C", "test_target": "Staphylococcus aureus", "Inhibition / %": 10.15}
{"compound": "COc1ccc(C2c3ccc4ccccc4c3OC(=NBr)C2(Br)C#N)cc1OC (stereo not given)", "test_target": "Staphylococcus aureus", "Inhibition / %": 21.78}
{"compound": "Cc1nn(-c2ccccc2)c2ncnc(NCc3ccccc3)c12", "test_target": "Staphylococcus aureus", "Inhibition / %": 16.34}
{"compound": "C#CCNC(=O)c1cc2cc(OCCCC3CCN(Cc4ccccc4)CC3)ccc2[nH]1", "test_target": "Staphylococcus aureus", "Inhibition / %": 18.56}
{"compound": "CCOC(=O)/C(C#N)=C\\c1ccc([N+](=O)[O-])cc1", "test_target": "Staphylococcus aureus", "Inhibition / %": 32.65}
{"compound": "C#CCN(C)Cc1cc2cc(OCc3ccccc3)ccc2n1C.O=C(O)C(=O)O", "test_target": "Staphylococcus aureus", "Inhibition / %": 41.66}
{"compound": "CNC(=O)NC1(C(=O)O)CC1c1ccccc1 (stereo not given)", "test_target": "Staphylococcus aureus", "Inhibition / %": 10.75}
{"compound": "COC(=O)C1(NC(=O)c2ccccc2)CC1c1ccccc1 (stereo not given)", "test_target": "Staphylococcus aureus", "Inhibition / %": 1.83}
{"compound": "Cc1ccc(/C=N/NC(=O)c2c[nH]c3ccccc23)cc1", "test_target": "Staphylococcus aureus", "Inhibition / %": 6.96}
{"compound": "COc1ccc(-c2cc(-c3cc4ccccc4nc3Cl)cc(=O)[nH]2)cc1", "test_target": "Staphylococcus aureus", "Inhibition / %": 22.93}
{"compound": "CC/C(C)=N/NC(=O)Cc1c[nH]c2ccccc12", "test_target": "Staphylococcus aureus", "Inhibition / %": -7.02}
{"compound": "C=CCNc1nc(N)c(C#N)cc1C#N", "test_target": "Staphylococcus aureus", "Inhibition / %": 40.4}
{"compound": "C#CCN(C)c1nc(NCCCCC2CCN(Cc3ccccc3)CC2)c(C#N)cc1C#N", "test_target": "Staphylococcus aureus", "Inhibition / %": 0.89}
{"compound": "O=C(O)/C(=C\\c1ccccc1)NC(=O)c1ccccc1", "test_target": "Staphylococcus aureus", "Inhibition / %": 14.68}
{"compound": "O=C(N/N=C/Cc1ccccc1)c1cc2ccccc2n1Cc1ccccc1", "test_target": "Staphylococcus aureus", "Inhibition / %": 8.78}
{"compound": "COc1cccc(C=C2N=C(c3ccccc3)OC2=O)c1OC(C)=O", "test_target": "Staphylococcus aureus", "Inhibition / %": 5.66}
{"compound": "N#CC1=C(Cl)Oc2c(ccc3ccccc23)C1c1cccc([N+](=O)[O-])c1 (stereo not given)", "test_target": "Staphylococcus aureus", "Inhibition / %": 9.83}
{"compound": "CC(C)(C)OC(=O)Nc1ccc(Br)cn1", "test_target": "Staphylococcus aureus", "Inhibition / %": 40.42}
{"compound": "C#CCN(C)c1cc(Cl)nc(N)n1", "test_target": "Staphylococcus aureus", "Inhibition / %": 26.35}
{"compound": "N#CCC(=C(C#N)C#N)c1ccccc1", "test_target": "Staphylococcus aureus", "Inhibition / %": 11.65}
{"compound": "O=C(N/N=C/c1c[nH]c2ccccc12)c1ccco1", "test_target": "Staphylococcus aureus", "Inhibition / %": 13.11}

FYI, the data here is from ChEMBL document CHEMBL4513135.
